experimental.system: HA of ca A/chicken/Hong Kong/G9/97 (H9N2) virus (influenza A virus)
experiment: cell-based or functional assay
value.kind: Neutralization IC50, H9-HK97 (µg/mL)

1) Antibody 3 (antibody, V domains shown) VH: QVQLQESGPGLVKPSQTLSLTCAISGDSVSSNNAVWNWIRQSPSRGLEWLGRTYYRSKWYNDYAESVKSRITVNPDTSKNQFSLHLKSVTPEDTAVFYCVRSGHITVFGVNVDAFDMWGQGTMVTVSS VL: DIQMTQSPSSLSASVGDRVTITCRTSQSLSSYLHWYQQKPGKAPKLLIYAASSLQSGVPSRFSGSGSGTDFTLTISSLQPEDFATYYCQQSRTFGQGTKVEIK ... 1.79
